tested on: corn (Zea mays); assay: Test G Pre-Emergence Protocol; type: in vivo; details: Zea mays, pre-emergence, 312 h, 15.625 g ai/ha, evaluated after 13 days, read-out: Corn damage rating (100=total damage to plant; 0=no damage to plant)
Recorded plant injury at 15.625 g/ha, one value per entry.
Report only the number, with the unit % understood.

> print(dat)
                                   compound                   resulttype  val
1  Cc1ccc(NC(=O)[C@H]2C(=O)N(C)C[C@@H]2c2ccc(C(F)(F)F)cc2)c(C)c1 (racemic)  plant injury at 15.625 g/ha    0
2  CCOc1cc(C2CN(C)C(=O)C2C(=O)Nc2cccc(F)c2F)ccc1Cl (stereo not shown)  plant injury at 15.625 g/ha   10
3  COc1ccc([C@@H]2CN(C)C(=O)[C@H]2C(=O)Nc2cccc(F)c2C)cc1Cl (racemic)  plant injury at 15.625 g/ha    0

Okay, now this compound:
Request body: readout plant injury at 15.625 g/ha, system corn (Zea mays), query CN1C[C@@H](c2cccc(Oc3ccc(F)cc3)c2)[C@H](C(=O)Nc2cccc(F)n2)C1=O (racemic) . Return the value.
0

###

tested on: velvetleaf (Abutilon theophrasti); test: Test G Post-Emergence Protocol; format: in vivo; settings: Abutilon theophrasti, post-emergence, 312 h, 62.5 g ai/ha, evaluated after 13 days, read-out: Velvetleaf damage rating (100=total damage to plant; 0=no damage to plant)
Recorded pest or weed control at 62.5 g/ha, one value per entry.
Report only the number, with the unit % understood.

> print(dat)
                                   compound                 targetortestsystem                         resulttype  val
1  CN1C[C@@H](c2ccc(C(F)(F)F)cc2)[C@H](C(=O)Nc2ncc[nH]2)C1=O (racemic)  velvetleaf (Abutilon theophrasti)  pest or weed control at 62.5 g/ha    0
2  CN1C[C@@H](c2cnc(Cl)c(F)c2)[C@H](C(=O)Nc2cccc(F)c2F)C1=O (racemic)  velvetleaf (Abutilon theophrasti)  pest or weed control at 62.5 g/ha    0
3  CN1C[C@@H](c2ccc(C(F)(F)F)cc2)[C@H](C(=O)Nc2ccnc(Cl)c2)C1=O (racemic)  velvetleaf (Abutilon theophrasti)  pest or weed control at 62.5 g/ha    0
4  CN1C[C@@H](c2ccc(C(F)(F)F)cc2)[C@H](C(=O)Nc2cnccc2C(F)(F)F)C1=O (racemic)  velvetleaf (Abutilon theophrasti)  pest or weed control at 62.5 g/ha   20
5  CC(C)c1cc(NC(=O)[C@@H]2C(=O)N(C)C[C@H]2c2ccc(C(F)(F)F)cc2)[nH]n1 (racemic)  velvetleaf (Abutilon theophrasti)  pest or weed control at 62.5 g/ha    0
6  CN1C[C@H](c2ccc(C(C)(C)C#N)cc2)[C@@H](C(=O)Nc2ccccc2F)C1=O (racemic)  velvetleaf (Abutilon theophrasti)  pest or weed control at 62.5 g/ha    0

Which measured pest or weed control at 62.5 g/ha value corresponds to CN1C[C@@H](c2ccc(C(F)(F)F)cc2)[C@H](C(=O)Nc2ccc(Cl)cc2F)C1=O (racemic) ?
20

Which measured pest or weed control at 62.5 g/ha value corresponds to CSc1nc(NC(=O)[C@@H]2C(=O)N(C)C[C@H]2c2ccc(C(F)(F)F)cc2)n[nH]1 (racemic) ?
0

Which measured pest or weed control at 62.5 g/ha value corresponds to CN1C[C@@H](c2ccc(C(F)(F)F)cc2)[C@H](C(=O)Nc2nnc(C(F)(F)F)[nH]2)C1=O (racemic) ?
0

Which measured pest or weed control at 62.5 g/ha value corresponds to CSc1nccc(NC(=O)[C@@H]2C(=O)N(C)C[C@H]2c2ccc(C(F)(F)F)cc2)n1 (racemic) ?
0

Which measured pest or weed control at 62.5 g/ha value corresponds to COc1cccc(NC(=O)[C@H]2C(=O)N(C)C[C@@H]2c2ccc(C(F)(F)F)cc2)c1C (racemic) ?
0

Hey, just so you know, these numbers are from patent US12077503B2.
